# EXPERIMENTAL DETAILS: Cytotoxicity against LPS-stimulated mouse RAW264.7 cells assessed as cell viability at 5 mg/L incubated for 24 hrs by alamar blue assay
# Type: cell-based
# RUN PARAMETERS: LPS-stimulated RAW264.7 cells, read-out: Activity
OBSERVATION TYPE: viability at 24 h, 5 mg/L (%)

1. COc1cc(-c2cc3cccc(OC)c3oc2=O)cc(OC)c1OC
54.4
2. COc1cc(-c2cc3cc(Br)cc(OC)c3oc2=O)cc(OC)c1OC
115
3. COc1cc(-c2cc3cc(Cl)ccc3oc2=O)cc(OC)c1OC
78.4
4. COc1cc(Br)cc2cc(-c3cccc(OC(C)=O)c3)c(=O)oc12
66.5
5. COc1ccc(-c2cc3cc(Cl)ccc3oc2=O)cc1
102
6. COc1cc(Br)cc2cc(-c3ccc(OC(C)=O)cc3)c(=O)oc12
61.7
7. O=c1oc2ccc(Cl)cc2cc1-c1ccc(Cl)cc1
114
8. COc1ccc(-c2cc3cc(Br)cc(OC)c3oc2=O)cc1
99.9
9. COc1ccc(-c2cc3cc(Cl)cc(Cl)c3oc2=O)cc1OC
118
10. O=c1oc2ccccc2cc1-c1ccc(F)cc1
110
11. COc1cc(Br)cc2cc(-c3cccc(O)c3)c(=O)oc12
28.5
12. COc1cccc(-c2cc3cccc(OC)c3oc2=O)c1
34.2
